For each entry below, report its EC50 value.
Biological target: hGcgR (Homo sapiens)
Sequence (P47871 26-477): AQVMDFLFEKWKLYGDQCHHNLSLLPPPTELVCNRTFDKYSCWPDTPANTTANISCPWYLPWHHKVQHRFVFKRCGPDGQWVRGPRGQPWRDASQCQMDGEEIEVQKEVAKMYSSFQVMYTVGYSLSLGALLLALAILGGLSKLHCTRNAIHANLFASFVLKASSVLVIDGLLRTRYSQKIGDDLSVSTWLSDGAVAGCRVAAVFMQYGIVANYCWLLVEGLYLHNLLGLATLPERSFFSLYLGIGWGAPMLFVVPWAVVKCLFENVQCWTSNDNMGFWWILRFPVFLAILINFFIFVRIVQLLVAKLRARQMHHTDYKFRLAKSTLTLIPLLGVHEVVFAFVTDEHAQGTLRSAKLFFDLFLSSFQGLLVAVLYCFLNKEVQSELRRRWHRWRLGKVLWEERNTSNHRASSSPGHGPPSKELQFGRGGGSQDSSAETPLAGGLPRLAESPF
Test: Functional cAMP activation in the presence of 0.1% casein (no HSA);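 note: intracellular cAMP rise after 30 min at 37 °C, read by HTRF against a cAMP standard curve, scaled from buffer only (0%) to maximal control ligand response (100%)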
Type: cell-based
Starred links: 1 amine or outer side, 2 acyl side, 3 side chain; linkers in the order of their positions; H or OH if unused. Non-standard residues stand in square brackets, D forms with d. Groups on a side chain read outwards from the residue. *: point of attachment. C20 diacid = O=C(O)CCCCCCCCCCCCCCCCCCC(=O)*; C18 diacid = O=C(O)CCCCCCCCCCCCCCCCC(=O)*; γGlu = O=C(O)[C@H](CCC(=O)[*:2])N[*:1]; αMe4Pal = C[C@](N)(Cc1ccncc1)C(=O)O; αMeL = CC(C)C[C@](C)(N)C(=O)O; AEEA = NCCOCCOCC(=O)O; Aib = CC(C)(N)C(=O)O
Give bare numbers, in nM.

Give one value of EC50 per listed substance.
1. H-Y[Aib]QGTFTSDFSQ[αMeL]LDKK([AEEA-γGlu-C18 diacid])AQ[αMe4Pal]AFIEYLIE[Aib]GESSGAPPPSGE-NH2 [Example 233]
2. H-Y[Aib]QGTFTSDFSK[αMeL]LDKK([AEEA-γGlu-C20 diacid])AQQAFIEYLLA[Aib]GPSSGAPPPSEG-NH2 [Example 30]
3. H-Y[Aib]QGTFTSDFSR[αMeL]LDKK([AEEA-AEEA-γGlu-C18 diacid])AQ[Aib]AFIEYLLE[Aib]GPSSGAPPPSGS-NH2 [Example 80]
4. H-Y[Aib]QGTFTSDYSI[αMeL]LDKQAAK([AEEA-AEEA-γGlu-C20 diacid])QFIEWLIEGGPSSGEPPPGAE-NH2 [Example 319]
5. H-Y[Aib]QGTFTSDFSK[αMeL]LDKK([AEEA-γGlu-C20 diacid])AQQAFIEYLLA[Aib]GPSSGEPPPSEG-NH2 [Example 19]
6. H-Y[Aib]QGTFTSDFSR[αMeL]LDKK([AEEA-γGlu-C18 diacid])AQ[Aib]AFIEYLLE[Aib]GPSSGAPPPSGS-NH2 [Example 79]
7. H-Y[Aib]QGTFTSDFSR[αMeL]LDKK([AEEA-γGlu-C20 diacid])AQ[Aib]AFIEYLLE[Aib]GPSSGAPPPGGS-NH2 [Example 42]
8. H-Y[Aib]QGTFTSDFSK[αMeL]LDKK([AEEA-γGlu-C20 diacid])AQ[Aib]AFIEYLLE[Aib]GPSSGAPPPSSG-NH2 [Example 44]

1: 2.25; 2: 5.22; 3: 7.44; 4: 4.81; 5: 2.35; 6: 3.08; 7: 5.83; 8: 2.46
